# System: NOMO1
# PROTOCOL: cell viability relative to DMSO control; higher = less cytotoxic
# DETAILS: RPMI 5 mM glucose + 10% FBS; 48 h; 0.000781 µM
Reported cell viability is given for each of the following compounds.
# unit: % | format: bare number

>>> print(df.to_string())
                            chemical_smiles  observed_value
0  CN1CCCN(C(=O)c2cccc(-c3ccc(/C=C4/C(=O)Nc5ccc(Cl)cc54)o3)c2)CC1             124
1  O=C(NC1CCNCC1)c1n[nH]cc1NC(=O)c1c(Cl)cccc1Cl             112

Now examine the next entry.
Challenge: Quick check: cell viability of C#Cc1cccc(Nc2ncnc3cc(OCCOC)c(OCCO)cc23)c1 ?
Response given: 118

====

# Test system: NOMO1
# PROTOCOL: cell viability relative to DMSO control; higher = less cytotoxic
# DETAILS: RPMI 5 mM glucose + 10% dialyzed FBS; 48 h; 15.4 µM
Recorded cell viability for the following compounds
Only the number, expressed in %, is required.

In [3]: df
Out[3]:
                                   compound  unit_tag  observed_value
0  COCCOC(=O)C/1=C(C)/NC/2=C(C1C3=CC=CC(=C3)O)/C(=O)CC(C2)C4=C(OC)C=CC=C4 (stereo not given)         %            91.4

Challenge: Can you share its cell viability? I mean this compound: COc1cc(N2CCC(O)CC2)ccc1Nc1cc(Nc2ccccc2[S+](=O)([O-])C(C)C)c2cc[nH]c2n1
Response given: 67

Challenge: Query C#Cc1cccc(Nc2ncnc3cc(OCCOC)c(OCCO)cc23)c1 next
Response given: 94.7

Challenge: Same read-out for COc1cc2nccc(Oc3ccc(NC(=O)Nc4cc(C)on4)c(Cl)c3)c2cc1OC ?
Response given: 120

Challenge: What do you get for O=C(NC1CCOCC1)c1ccc(-c2cc(-c3c[nH]nc3-c3ccccn3)ccn2)cc1 ?
Response given: 97.8

Challenge: Now this one: CC#C[C@]1(O)CC[C@H]2[C@@H]/3CCC/4=C/C(=O)CCC4=C3[C@H](C[C@]12C)C5=CC=C(C=C5)N(C)C
Response given: 9.38

Challenge: For C[C@]\1(CCS\C(=N1)N)C2=CC(=C(F)C=C2F)C3=CN=CN=C3 then?
Response given: 19.8

Challenge: Likewise for C#CCN(C)[C@H](C)Cc1ccccc1 ?
Response given: 83.6

Challenge: What do you have for FC(F)(F)c1ccc(Nc2nc3cc(Oc4ccnc(-c5ncc(C(F)(F)F)[nH]5)c4)ccc3[nH]2)cc1 ?
Response given: 148

Challenge: Can you handle C[N]1C=NC=C1[C@@](N)(C2=CC=C(Cl)C=C2)C3=CC=C4N(C)C(=O)\C=C(\C5=CC=CC(=C5)Cl)C4=C3 next?
Response given: 67.4

====

Each entry below lists one item and its recorded cell viability value.
# Test system: P12-Ichikawa
# PROTOCOL: cell viability relative to DMSO control; higher = less cytotoxic
# DETAILS: RPMI 5 mM glucose + 10% FBS; 48 h; 0.000781 µM
Report the figure along with its unit, number first.

COMPOUND	SYSTEM_UNDER_TEST	MEASURED_PROPERTY	OBSERVED_VALUE
CCC1=C[C@@H]2CN(C1)Cc1c([nH]c3ccccc13)[C@@](C(=O)OC)(c1cc3c(cc1OC)N(C)[C@H]1[C@@](O)(C(=O)OC)[C@H](OC(C)=O)[C@]4(CC)C=CCN5CC[C@]31[C@@H]54)C2	P12-Ichikawa	cell viability	108%
COc1nc(-c2ccc3c(c2)OCO3)n(-c2ccc(NC(=O)CSc3ccccc3)cc2)n1	P12-Ichikawa	cell viability	107%
CC#C[C@]1(O)CC[C@H]2[C@@H]/3CCC/4=C/C(=O)CCC4=C3[C@H](C[C@]12C)C5=CC=C(C=C5)N(C)C	P12-Ichikawa	cell viability	95.6%

Let us examine a further case.
Challenge: Suppose we examine the compound CCCCN(CCCC)CCC(O)c1cc2c(Cl)cc(Cl)cc2c2cc(C(F)(F)F)ccc12 (centres undefined) ; what cell viability value has been reported?
Response given: 115%

====

# Test system: SEM cells
# PROTOCOL: cell viability relative to DMSO control; higher = less cytotoxic
# DETAILS: HPLM + 10% dialyzed FBS; 48 h; 46.1 µM
Exam item: assign t to entries whose cell viability is below 30% and f to entries at or above 30%. Note that a value of exactly 30% receives f.

CHEMICAL_SMILES	ANSWER_LABEL
COc1ccc(Cc2nccc3cc(OC)c(OC)cc23)cc1OC	f
O=C(NC1CCNCC1)c1n[nH]cc1NC(=O)c1c(Cl)cccc1Cl	t
CN1CCCN(C(=O)c2cccc(-c3ccc(/C=C4/C(=O)Nc5ccc(Cl)cc54)o3)c2)CC1	t
CN(C)CCOC(c1ccccc1)c1ccccc1	f
CCOC(=O)Nc1ccc(NCc2ccc(F)cc2)cc1N	f
CC(C)(C)OC(=O)CN(Cc1ccc(Cl)cc1)Cc1ccc([N+](=O)[O-])s1	f
CC(=O)N1CCN(c2ccc(OCc3nn(C)c(C)c3-c3cccc4c(CCCOc5cc(C)c(Cl)c(C)c5)c(C(=O)O)n(Cc5cccnc5)c34)cc2)CC1	t
Clc1cccc(-c2nnnn2Cc2cccnc2)c1Cl	f

Challenge: Just wondering, is cell viability of O=C1c2c(O)cccc2[C@H]([C@@H]2O[C@H](CO)[C@@H](O)[C@H](O)[C@H]2O)c2cc(CO)cc(O)c21 below 30%?
Response given: f

Challenge: Follow-up item: C[C@H](NC(=O)C(=O)Nc1ccccc1C(C)(C)C)C(=O)N[C@@H](CC(=O)O)C(=O)COc1c(F)c(F)cc(F)c1F
Response given: t

Challenge: Another molecule to check: CC#C[C@]1(O)CC[C@H]2[C@@H]/3CCC/4=C/C(=O)CCC4=C3[C@H](C[C@]12C)C5=CC=C(C=C5)N(C)C
Response given: f

Challenge: Param item: O=C(Nc1ccc(OC(F)(F)F)cc1)c1sccc1NCc1ccnc2ccccc12
Response given: t

Challenge: Next record, please: CN[C@H](CC(C)C)C(=O)N[C@H]1C(=O)N[C@@H](CC(N)=O)C(=O)N[C@H]2C(=O)N[C@H]3C(=O)N[C@H](C(=O)N[C@H](C(=O)O)c4cc(O)cc(O)c4-c4cc3ccc4O)[C@H](O)c3ccc(c(Cl)c3)Oc3cc2cc(c3O[C@@H]2O[C@H](CO)[C@@H](O)[C@H](O)[C@H]2O[C@H]2C[C@](C)(N)[C@H](O)[C@H](C)O2)Oc2ccc(cc2Cl)[C@H]1O
Response given: f

Challenge: Now the molecule Cc1c[nH]c(/C=C2\C(=O)Nc3ccccc32)c1CCC(=O)O
Response given: f

Challenge: Could you do the same for Cc1cc2c(C(C)C)c(O)c(O)c(C=O)c2c(O)c1-c1c(C)cc2c(C(C)C)c(O)c(O)c(C=O)c2c1O , please?
Response given: t

====

Entries and their cell viability
# Tested on: NOMO1
# PROTOCOL: cell viability relative to DMSO control; higher = less cytotoxic
# DETAILS: RPMI 5 mM glucose + 10% FBS; 48 h; 5.12 µM
// return numeric value only (unit: %, not printed)

MOLECULE	SYSTEM_UNDER_TEST	MEASURED_PROPERTY	OBSERVED_VALUE
CC/1=C/N([C@@H]2C[C@@H](O)[C@H](CO)O2)C(=O)NC1=O	NOMO1	cell viability	90.1
O=C/1\C=C(/OC(=C1)/C2=C3SC4=C(SC3=CC=C2)C=CC=C4)N5CCOCC5	NOMO1	cell viability	89.1
CCC[C@@H]1C[C@@H](C(=O)N[C@@H]([C@H]2O[C@H](SC)[C@H](O)[C@@H](O)[C@H]2O)[C@@H](C)O)N(C)C1.Cl	NOMO1	cell viability	111
Cc1cc(O)c2c3c4c(cc(O)c13)C(C)(C)C(=O)c1c(O)cc(O)c(c1-4)C2=O	NOMO1	cell viability	101
O=C(O)[C@H](Cc1c[nH]c2ccccc12)N1C(=O)c2ccccc2C1=O	NOMO1	cell viability	90.4

Challenge: Tell me the measured cell viability of NC(=O)c1ccc(-c2nc(-c3ccc4c(c3)OCCO4)c(-c3ccccn3)[nH]2)cc1 , please.
Response given: 122

Challenge: How about this molecule: CSC1=CC(=CC=C1)NC2=NC3=C(C=N2)/C=C(C(=O)N3C)/C4=C(Cl)C=CC=C4Cl
Response given: 103

Challenge: Next record, please: CCC1=C[C@@H]2CN(C1)Cc1c([nH]c3ccccc13)[C@@](C(=O)OC)(c1cc3c(cc1OC)N(C)[C@H]1[C@@](O)(C(=O)OC)[C@H](OC(C)=O)[C@]4(CC)C=CCN5CC[C@]31[C@@H]54)C2
Response given: 22.4

Challenge: Record: C[C@H](NC(=O)C(=O)Nc1ccccc1C(C)(C)C)C(=O)N[C@@H](CC(=O)O)C(=O)COc1c(F)c(F)cc(F)c1F
Response given: 122

Challenge: Try this molecule next: COC(=O)N1CCN(Cc2cccc(NC(=O)Nc3ccc(C)nc3)c2F)CC1
Response given: 84.1
